Target: T1, P6-AA-1HGe-Q
T1 chain: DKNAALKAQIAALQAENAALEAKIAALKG
Assay: two-hybrid library CCmax;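 note: natural log of median RNA to DNA barcode read ratio; higher means stronger binding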
Details: mean of both orientations
experimentalReadout: interaction score

# binder, experimentalReadout, assayValue
rows = [
    ("DENAALEAQIAALQAKNAALKAEIAALEG [P5-AA-1HGe-Q]", "interaction score", 2.07),
    ("DENAALEADIAALDAKNAALKAEIAALEG [P5-AA-1HGe-D]", "interaction score", 1.12),
    ("DENAALEAEIAALEAKNAALKAEIAALEG [O5-AA]", "interaction score", 2.4),
]

Fill blank: measured interaction score of the binder DENAALEARIAALRAKNAALKAEIAALEG [P5-AA-1HGe-R] is ____.
1.9

Value source: paper PMC10397247
